# SYSTEM NAME: Intercellular adhesion molecule (ICAM-1), Integrin alpha-L/beta-2 (Homo sapiens, UniProt P05107+P20701)
# Sequence (P20701 whole entry): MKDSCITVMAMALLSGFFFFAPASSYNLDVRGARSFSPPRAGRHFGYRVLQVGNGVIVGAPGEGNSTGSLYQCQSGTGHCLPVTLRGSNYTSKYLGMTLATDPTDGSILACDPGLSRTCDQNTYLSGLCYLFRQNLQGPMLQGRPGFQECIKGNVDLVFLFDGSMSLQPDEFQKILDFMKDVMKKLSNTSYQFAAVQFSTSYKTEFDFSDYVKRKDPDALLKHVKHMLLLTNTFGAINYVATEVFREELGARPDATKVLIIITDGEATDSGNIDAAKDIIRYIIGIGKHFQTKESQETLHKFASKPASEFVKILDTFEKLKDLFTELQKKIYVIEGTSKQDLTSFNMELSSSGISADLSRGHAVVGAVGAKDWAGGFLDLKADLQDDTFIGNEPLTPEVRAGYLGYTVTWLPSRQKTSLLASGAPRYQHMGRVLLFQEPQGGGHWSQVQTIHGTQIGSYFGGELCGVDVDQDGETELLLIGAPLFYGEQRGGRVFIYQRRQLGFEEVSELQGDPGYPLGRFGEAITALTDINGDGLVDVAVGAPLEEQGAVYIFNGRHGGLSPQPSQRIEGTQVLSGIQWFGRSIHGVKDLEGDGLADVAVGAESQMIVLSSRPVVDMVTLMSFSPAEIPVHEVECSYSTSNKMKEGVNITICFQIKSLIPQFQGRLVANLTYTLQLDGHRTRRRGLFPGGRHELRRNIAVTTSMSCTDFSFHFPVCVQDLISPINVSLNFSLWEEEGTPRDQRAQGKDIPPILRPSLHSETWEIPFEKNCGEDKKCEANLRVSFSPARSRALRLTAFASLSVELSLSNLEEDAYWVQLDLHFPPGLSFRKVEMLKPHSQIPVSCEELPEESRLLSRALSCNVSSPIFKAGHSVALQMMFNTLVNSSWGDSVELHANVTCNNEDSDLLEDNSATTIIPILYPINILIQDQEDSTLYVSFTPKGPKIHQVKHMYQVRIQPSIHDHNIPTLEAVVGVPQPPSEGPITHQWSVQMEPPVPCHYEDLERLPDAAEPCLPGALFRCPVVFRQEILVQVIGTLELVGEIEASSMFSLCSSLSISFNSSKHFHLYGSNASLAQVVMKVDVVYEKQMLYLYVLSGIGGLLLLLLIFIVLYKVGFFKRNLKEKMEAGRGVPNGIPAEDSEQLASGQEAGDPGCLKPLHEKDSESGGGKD
# Sequence (P05362 whole entry, further chain): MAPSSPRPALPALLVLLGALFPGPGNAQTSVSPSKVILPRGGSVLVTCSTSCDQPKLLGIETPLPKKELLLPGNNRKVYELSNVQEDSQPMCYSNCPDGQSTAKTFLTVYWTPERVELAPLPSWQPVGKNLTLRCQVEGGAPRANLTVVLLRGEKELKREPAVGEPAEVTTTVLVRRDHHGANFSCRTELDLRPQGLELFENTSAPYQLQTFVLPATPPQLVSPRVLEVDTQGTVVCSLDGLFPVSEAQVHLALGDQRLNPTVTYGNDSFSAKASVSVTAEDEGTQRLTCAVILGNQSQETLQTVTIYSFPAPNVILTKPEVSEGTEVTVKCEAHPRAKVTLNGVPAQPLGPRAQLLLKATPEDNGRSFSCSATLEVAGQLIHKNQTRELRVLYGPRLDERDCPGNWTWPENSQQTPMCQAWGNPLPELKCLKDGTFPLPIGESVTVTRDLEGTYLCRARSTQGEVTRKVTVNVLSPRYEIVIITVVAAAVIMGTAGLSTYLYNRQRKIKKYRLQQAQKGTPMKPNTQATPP
# Sequence (P05107 whole entry): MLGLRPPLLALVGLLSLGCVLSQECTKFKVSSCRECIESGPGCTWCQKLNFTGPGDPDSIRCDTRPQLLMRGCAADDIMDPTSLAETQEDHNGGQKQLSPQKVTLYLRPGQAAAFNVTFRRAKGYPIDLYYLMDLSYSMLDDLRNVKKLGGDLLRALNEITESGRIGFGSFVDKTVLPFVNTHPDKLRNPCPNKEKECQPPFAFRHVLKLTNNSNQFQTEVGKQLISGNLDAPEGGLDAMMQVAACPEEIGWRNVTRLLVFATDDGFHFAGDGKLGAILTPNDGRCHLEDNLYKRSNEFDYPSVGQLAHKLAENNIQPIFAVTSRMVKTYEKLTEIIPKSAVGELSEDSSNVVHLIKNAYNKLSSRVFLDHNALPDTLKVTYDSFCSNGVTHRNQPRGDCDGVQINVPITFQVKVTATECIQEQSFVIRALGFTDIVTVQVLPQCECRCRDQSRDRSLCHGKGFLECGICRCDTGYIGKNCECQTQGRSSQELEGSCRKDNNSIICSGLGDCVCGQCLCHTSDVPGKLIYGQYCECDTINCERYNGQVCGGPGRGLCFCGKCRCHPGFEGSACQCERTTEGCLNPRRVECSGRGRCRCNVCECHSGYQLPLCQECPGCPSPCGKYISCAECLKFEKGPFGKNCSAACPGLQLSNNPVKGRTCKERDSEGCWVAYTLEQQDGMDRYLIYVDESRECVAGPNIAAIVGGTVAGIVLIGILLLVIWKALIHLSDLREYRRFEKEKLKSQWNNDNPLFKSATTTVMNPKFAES
# ASSAY EXPLANATION: Dissociation constant for human Lymphocyte function associated antigen 1 in LFA-1/ICAM-1 binding assay
# Assay type: protein-complex assay
The following compounds are listed with their measured pKd values.
pKd is a log-scale quantity: -log10 of the concentration expressed in molar.

The measured pKd associated with "C[C@@]1(Cc2ccc(Br)cc2)C(=O)N(c2cc(Cl)cc(Cl)c2)c2ncc(S(=O)(=O)CCCN)n21" reads 6.77

The measured pKd associated with CC1(Cc2ccc(Br)cc2)C(=O)N(c2cc(Cl)cc(Cl)c2)c2nc(Br)cn21 (stereo not drawn) reads 6.20

The measured pKd associated with "CC(=O)NCCCS(=O)(=O)c1cnc2n1[C@](C)(Cc1ccc(Br)cc1)C(=O)N2c1cc(Cl)cc(Cl)c1" reads 7.52

The measured pKd associated with "C[C@@]1(Cc2ccc(Br)cc2)C(=O)N(c2cc(Cl)cc(Cl)c2)c2ncc(S(C)(=O)=O)n21" reads 7.30

The measured pKd associated with "C[C@@]1(Cc2ccc(Br)cc2)C(=O)N(c2cc(Cl)cc(Cl)c2)c2ncc(S(=O)(=O)N3CCOCC3)n21" reads 7.70

The measured pKd associated with COc1cnc2n1C(C)(Cc1ccc(Br)cc1)C(=O)N2c1cc(Cl)cc(Cl)c1 (stereo not drawn) reads 6.44

The measured pKd associated with "C[C@@]1(Cc2ccc(Br)cc2)C(=O)N(c2cc(Cl)cc(Cl)c2)c2ncc(S(=O)(=O)N3CCCCC3)n21" reads 7.30

---

# ASSAY EXPLANATION: Maximum plasma concentration present after 4 hours of administration of compound at 30 mg/kg
# Type: ADME, organism-based, Homo sapiens
# Design: dose 30 mg/kg
# APPLIED CONDITIONS: read-out: Concentration
METRIC NAME: Cmax
Just the number plus its unit, please.

The measured Cmax associated with "C[C@@]1(Cc2ccc(Br)cc2)C(=O)N(c2cc(Cl)cc(Cl)c2)c2ncc(S(C)(=O)=O)n21" reads 2800 ng/mL

---

# SYSTEM NAME: Intercellular adhesion molecule (ICAM-1), Integrin alpha-L/beta-2 (Homo sapiens, UniProt P05107+P20701)
# ASSAY EXPLANATION: Dissociation constant for human Lymphocyte function associated antigen 1 in LFA-1/ICAM-1 binding assay
# Type: protein-complex assay
The following compounds are listed with their measured pKd values.
pKd is a log-scale quantity: -log10 of the concentration expressed in molar.

Illustrative cases are given below, each with its answer.
In [3]: df
Out[3]:
                                   compound  test_value
0  COCCCS(=O)(=O)c1cnc2n1[C@](C)(Cc1ccc(Br)cc1)C(=O)N2c1cc(Cl)cc(Cl)c1        7.70
1  C[C@@]1(Cc2ccc(Br)cc2)C(=O)N(c2cc(Cl)cc(Cl)c2)c2nccn21        8.00
2  C[C@@]1(Cc2ccc(Br)cc2)C(=O)N(c2cc(Cl)cc(Cl)c2)c2ncc(S(=O)(=O)N3CCCC(O)C3)n21 (some centres undefined)        7.15

The measured pKd associated with CC1(Cc2ccc(Br)cc2)C(=O)N(c2cc(Cl)cc(Cl)c2)c2ncc(C#N)n21 (centres undefined) reads 6.72

---

# SYSTEM NAME: Intercellular adhesion molecule (ICAM-1), Integrin alpha-L/beta-2 (Homo sapiens, UniProt P05107+P20701)
# ASSAY EXPLANATION: Dissociation constant against human Lymphocyte function associated antigen1 in LFA-1/ICAM-1 binding assay
# Assay type: protein-complex assay
Threshold 100 nM. Kd below it: Met. Kd at it or above: Not met.

Some solved cases for reference:
In [3]: df
Out[3]:
                                        mol  class_assignment
0  CC(=O)NCCCS(=O)(=O)c1cnc2n1[C@](C)(Cc1ccc(Br)cc1)C(=O)N2c1cc(Cl)cc(Cl)c1               Met
1  CC(=O)OCCCS(=O)(=O)c1cnc2n1[C@](C)(Cc1ccc(Br)cc1)C(=O)N2c1cc(Cl)cc(Cl)c1               Met
2  C[C@@]1(Cc2ccc(Br)cc2)C(=O)N(c2cc(Cl)cc(Cl)c2)c2ncc(S(=O)(=O)N3CCC(O)CC3)n21               Met
3  C[C@@]1(Cc2ccc(Br)cc2)C(=O)N(c2cc(Cl)cc(Cl)c2)c2ncc(S(=O)(=O)N3CCNCC3)n21           Not met

Report whether reported Kd is lower than 100 nM (strictly) for "C[C@@]1(Cc2ccc(Br)cc2)C(=O)N(c2cc(Cl)cc(Cl)c2)c2ncc(S(=O)(=O)N3CCC(=O)CC3)n21"
Not met

---

# ASSAY EXPLANATION: Maximum plasma concentration present after 4 hours of administration of compound of at 30 mg/kg
# Assay type: ADME, organism-based, Homo sapiens
# Design: dose 30 mg/kg
# APPLIED CONDITIONS: read-out: Concentration
METRIC NAME: Cmax
Just the number plus its unit, please.

The measured Cmax associated with "C[C@@]1(Cc2ccc(Br)cc2)C(=O)N(c2cc(Cl)cc(Cl)c2)c2nccn21" reads 25 ng/mL

---

# ASSAY EXPLANATION: Maximum plasma concentration present after 4 hours of administration of compound of at 100 mg/kg
# Format: ADME, organism-based, Homo sapiens
# Set-up: dose 100 mg/kg
# APPLIED CONDITIONS: read-out: Concentration
METRIC NAME: Cmax (ng/mL)
The response must be a number in ng/mL with no trailing unit.

The measured Cmax associated with "C[C@@]1(Cc2ccc(Br)cc2)C(=O)N(c2cc(Cl)cc(Cl)c2)c2nccn21" reads 155

---

The following molecules are listed with their measured IC50 values.
# Organism: Mus musculus
# ASSAY EXPLANATION: tissue or blood
# Format: functional, organism-based
The response must be a number in µM with no trailing unit.

In [3]: df
Out[3]:
                                        mol  metric_name  test_value
0  C[C@@]1(Cc2ccc(Br)cc2)C(=O)N(c2cc(Cl)cc(Cl)c2)c2ncc(S(=O)(=O)N3CCNCC3)n21         IC50        27.8

The measured IC50 associated with "C[C@@]1(Cc2ccc(Br)cc2)C(=O)N(c2cc(Cl)cc(Cl)c2)c2ncc(S(=O)(=O)N3CCC(O)CC3)n21" reads 4.6

The measured IC50 associated with "C[C@@]1(Cc2ccc(Br)cc2)C(=O)N(c2cc(Cl)cc(Cl)c2)c2ncc(S(=O)(=O)N3CCC(=O)CC3)n21" reads 5.5

The measured IC50 associated with "CC(=O)NCCCS(=O)(=O)c1cnc2n1[C@](C)(Cc1ccc(Br)cc1)C(=O)N2c1cc(Cl)cc(Cl)c1" reads 9.5

---

# ASSAY EXPLANATION: Maximum plasma concentration present after 4 hours of administration of compound of concentration 100 mg/kg
# Assay type: ADME, organism-based, Homo sapiens
# Set-up: dose 100 mg/kg
# APPLIED CONDITIONS: read-out: Concentration
METRIC NAME: Cmax (ng/mL)
The response must be a number in ng/mL with no trailing unit.

The measured Cmax associated with "C[C@@]1(Cc2ccc(Br)cc2)C(=O)N(c2cc(Cl)cc(Cl)c2)c2ncc(S(C)(=O)=O)n21" reads 14400

---

# SYSTEM NAME: Intercellular adhesion molecule (ICAM-1), Integrin alpha-L/beta-2 (Homo sapiens, UniProt P05107+P20701)
# ASSAY EXPLANATION: Dissociation constant for human Lymphocyte function associated antigen 1 in LFA-1/ICAM-1 binding assay
# Type: protein-complex assay
Threshold 30 nM. Kd below it: 1.0. Kd at it or above: 0.0.

Some solved cases for reference:
>>> print(df.to_string())
                                   compound  class_assignment
0  CC(=O)OCCCS(=O)(=O)c1cnc2n1[C@](C)(Cc1ccc(Br)cc1)C(=O)N2c1cc(Cl)cc(Cl)c1               1.0
1  C[C@@]1(Cc2ccc(Br)cc2)C(=O)N(c2cc(Cl)cc(Cl)c2)c2ncc(S(=O)(=O)N3CCC(O)CC3)n21               1.0
2  C[C@@]1(Cc2ccc(Br)cc2)C(=O)N(c2cc(Cl)cc(Cl)c2)c2ncc(S(=O)(=O)CCCCO)n21               1.0
3  CC1(Cc2ccc(Br)cc2)C(=O)N(c2cc(Cl)cc(Cl)c2)c2ncc(Br)n21 (centres undefined)               0.0
4  C[C@@]1(Cc2ccc(Br)cc2)C(=O)N(c2cc(Cl)cc(Cl)c2)c2ncc(S(=O)(=O)CCCO)n21               1.0

Report whether reported Kd is lower than 30 nM (strictly) for CC1(Cc2ccc(Br)cc2)C(=O)N(c2cc(Cl)cc(Cl)c2)c2nncn21 (centres undefined)
0.0

Where do these numbers come from? They come from ChEMBL document CHEMBL1138790.
